Reference for the values: ChEMBL document CHEMBL1156297

# Target Or Test System: Carbonic anhydrase 12 (Homo sapiens)
# Sequence (O43570 whole entry): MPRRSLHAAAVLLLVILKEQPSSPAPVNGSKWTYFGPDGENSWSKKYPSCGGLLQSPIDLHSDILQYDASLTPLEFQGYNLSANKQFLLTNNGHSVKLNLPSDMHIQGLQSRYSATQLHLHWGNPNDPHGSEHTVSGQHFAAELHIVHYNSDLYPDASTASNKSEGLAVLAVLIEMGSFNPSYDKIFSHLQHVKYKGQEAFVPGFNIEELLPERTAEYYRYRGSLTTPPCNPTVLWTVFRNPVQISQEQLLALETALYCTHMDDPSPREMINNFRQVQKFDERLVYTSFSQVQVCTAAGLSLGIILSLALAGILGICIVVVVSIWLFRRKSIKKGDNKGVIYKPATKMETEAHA
Catalogue of molecules with associated Ki
Report the value in nM with no unit label.

NS(=O)(=O)c1ccc(CNS(=O)(=O)[C@@H]2O[C@H](CO)[C@@H](O[C@H]3O[C@H](CO)[C@@H](O)[C@H](O)[C@H]3O)[C@H](O)[C@H]2O)cc1 :: 8.2
CC(=O)OC[C@H]1O[C@@H](SNCCc2ccc(S(N)(=O)=O)cc2)[C@H](OC(C)=O)[C@@H](OC(C)=O)[C@@H]1OC(C)=O :: 13.6

Now look at this one.
Prompt: Report its Ki with Carbonic anhydrase 12 (Homo sapiens) as the test system: `CC(=O)OC[C@H]1O[C@@H](SNCc2ccc(S(N)(=O)=O)cc2)[C@H](OC(C)=O)[C@@H](OC(C)=O)[C@@H]1OC(C)=O`
Response: 11.5
